- Target desc: SHP2 WT (Homo sapiens, UniProt Q06124)
- Sequence (Q06124 whole entry): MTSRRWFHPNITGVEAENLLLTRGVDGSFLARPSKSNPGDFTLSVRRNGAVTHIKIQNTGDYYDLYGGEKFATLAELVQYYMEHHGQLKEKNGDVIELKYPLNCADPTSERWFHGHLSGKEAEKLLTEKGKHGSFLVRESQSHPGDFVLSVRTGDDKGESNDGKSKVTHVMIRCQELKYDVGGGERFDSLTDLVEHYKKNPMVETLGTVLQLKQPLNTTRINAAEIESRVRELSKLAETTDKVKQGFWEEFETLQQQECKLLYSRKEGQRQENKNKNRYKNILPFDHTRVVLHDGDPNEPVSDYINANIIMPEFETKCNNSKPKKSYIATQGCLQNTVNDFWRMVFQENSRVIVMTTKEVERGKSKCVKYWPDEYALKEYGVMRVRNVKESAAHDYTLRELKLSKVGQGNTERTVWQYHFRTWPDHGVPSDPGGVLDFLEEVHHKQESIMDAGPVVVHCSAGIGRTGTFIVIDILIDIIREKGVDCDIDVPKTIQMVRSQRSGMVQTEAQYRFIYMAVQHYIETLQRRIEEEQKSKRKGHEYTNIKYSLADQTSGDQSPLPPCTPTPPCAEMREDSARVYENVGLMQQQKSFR
pIC50: −log10 of the molar value.
Measurement kind: pIC50

Considering Cc1c(F)c(N)cc(C(=O)Nc2cc(-n3cc(C(=O)N4CCN(C)CC4)nn3)c(F)cc2N2C[C@@H](C)N(C)[C@@H](C)C2)c1Cl [HYBI-084] , its pIC50 with SHP2 WT (Homo sapiens, UniProt Q06124) was recorded as < 6.00

* * *

- Experiment description: PK profile of HBI-2375 in plasma and brain in C57BL/6J mice
- Assay type: in vivo
- Test conditions: mouse; C57BL/6J mice, 7-day repeat PO 80 mg/kg, brain, male
Measurement kind: Tmax at 7 day (h)
Give the value, in units of h, as a plain number.

Tmax at 7 day reported for this compound Cc1c(F)c(N)cc(C(=O)Nc2cc(-n3cc(C(=O)N4CCN(C)CC4)nn3)c(F)cc2N2C[C@@H](C)N(C)[C@@H](C)C2)c1Cl [HYBI-084] : 4

* * *

- Experiment description: PK profile of HBI-2375 in plasma, brain and CSF in SD rats
- Type: in vivo
- Test conditions: Sprague-Dawley, rat; SD rats, single PO 40 mg/kg, CSF, female
Measurement kind: AUC(0-t)
Write the figure, then the unit, nothing else.

AUC(0-t) reported for this compound `Cc1c(F)c(N)cc(C(=O)Nc2cc(-n3cc(C(=O)N4CCN(C)CC4)nn3)c(F)cc2N2C[C@@H](C)N(C)[C@@H](C)C2)c1Cl` : 124 ng·h/mL

* * *

- Experiment description: in vitro
- Test conditions: rat, plasma
Measurement kind: fraction unbound

fraction unbound reported for this compound Cc1c(F)c(N)cc(C(=O)Nc2cc(-n3cc(C(=O)N4CCN(C)CC4)nn3)c(F)cc2N2C[C@@H](C)N(C)[C@@H](C)C2)c1Cl [HYBI-084] : < 0.07

* * *

- Experiment description: PK profile of HBI-2375 in plasma and brain in C57BL/6J mice
- Type: in vivo
- Test conditions: both sexes, mouse; C57BL/6J mice, single PO 40 mg/kg, brain, mean
Measurement kind: Cmax (ng/g)
Give the value, in units of ng/g, as a plain number.

Cmax reported for this compound `Cc1c(F)c(N)cc(C(=O)Nc2cc(-n3cc(C(=O)N4CCN(C)CC4)nn3)c(F)cc2N2C[C@@H](C)N(C)[C@@H](C)C2)c1Cl` : 180

* * *

- Experiment description: PK profile of HBI-2375 in plasma and brain in C57BL/6J mice
- Assay type: in vivo
- Test conditions: mouse; C57BL/6J mice, single PO 80 mg/kg, plasma, female
Measurement kind: MRT last (h)
Give the value, in units of h, as a plain number.

MRT last reported for this compound `Cc1c(F)c(N)cc(C(=O)Nc2cc(-n3cc(C(=O)N4CCN(C)CC4)nn3)c(F)cc2N2C[C@@H](C)N(C)[C@@H](C)C2)c1Cl` : 4.86

* * *

- Experiment description: PK profile of HBI-2375 in plasma and brain in C57BL/6J mice
- Assay type: in vivo
- Test conditions: both sexes, mouse; C57BL/6J mice, single PO 80 mg/kg, brain
- Experimental: EXAMPLE 4: PK profile of compound of Formula (IIIb) (HBI-2375, HYBI-84) in plasma and brain in C57BL/6J mice: This study was conducted in accordance with the Study Protocol and Pharmaron (Ningbo) TSP's Standard Operating Procedures (SOPs) following all regulatory protocols. This study was conducted under non-GLP environment. […]
Measurement kind: Tmax (h)
Give the value, in units of h, as a plain number.

Tmax reported for this compound Cc1c(F)c(N)cc(C(=O)Nc2cc(-n3cc(C(=O)N4CCN(C)CC4)nn3)c(F)cc2N2C[C@@H](C)N(C)[C@@H](C)C2)c1Cl [HYBI-084] : 4

* * *

- Target desc: BRD4-BD1 (Homo sapiens)
- Construct: BRD4-BD1
- Experiment description: Selectivity panel (Table 3)
Measurement kind: IC50

IC50 reported for this molecule `Cc1c(F)c(N)cc(C(=O)Nc2cc(-n3cc(C(=O)N4CCN(C)CC4)nn3)c(F)cc2N2C[C@@H](C)N(C)[C@@H](C)C2)c1Cl` : > 1000 nM

* * *

- Experiment description: PK profile of HBI-2375 in plasma, brain and CSF in SD rats
- Format: in vivo
- Test conditions: male, Sprague-Dawley, rat; SD rats, single PO 40 mg/kg, brain, males
Measurement kind: AUC(0-t) (ng·h/mL)
Give the value, in units of ng·h/mL, as a plain number.

AUC(0-t) reported for this compound `Cc1c(F)c(N)cc(C(=O)Nc2cc(-n3cc(C(=O)N4CCN(C)CC4)nn3)c(F)cc2N2C[C@@H](C)N(C)[C@@H](C)C2)c1Cl` : 2200

* * *

- Experiment description: PK profile of HBI-2375 in plasma and brain in C57BL/6J mice
- Assay type: in vivo
- Test conditions: C57BL/6J, mouse, brain, po, 80 mg/kg, Single PO Mouse at 80 mg/kg; read-out: Mean Brain Concentration, Cmin = 24 h
Measurement kind: concentration at 24 h (ng/g)
Give the value, in units of ng/g, as a plain number.

concentration at 24 h reported for this compound `Cc1c(F)c(N)cc(C(=O)Nc2cc(-n3cc(C(=O)N4CCN(C)CC4)nn3)c(F)cc2N2C[C@@H](C)N(C)[C@@H](C)C2)c1Cl` : 55
